B1: LINE1-full (parent)
chain: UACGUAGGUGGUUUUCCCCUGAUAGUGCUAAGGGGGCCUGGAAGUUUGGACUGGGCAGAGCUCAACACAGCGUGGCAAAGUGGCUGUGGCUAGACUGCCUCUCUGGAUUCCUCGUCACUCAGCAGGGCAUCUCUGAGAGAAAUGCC

Variants of: B1
Experiment: self-cleavage, relative activity (ratio to wild type); higher = more cleavage; in vitro, sequencing; the parent is a self-cleaving ribozyme
Tag: 1 (yes) if measured self-cleavage is not below 0.7, 0 (no) if it is.

Changes	Category Label
A22U U47C	1 (yes)
C56U A57G	0 (no)
C28A A77U	1 (yes)
U52G U112C	1 (yes)
A59U U81C	1 (yes)
U47A U96C	0 (no)
G32A U81G	1 (yes)
C37G A67U	0 (no)
U15C U47A	1 (yes)
G10A A64G	0 (no)
U13A G35A	0 (no)
U87G U104A	0 (no)
G88A C120U	0 (no)
G40A A42G	1 (yes)
U119C G139U	1 (yes)
U91C A140C	0 (no)
A77U A92G	0 (no)
A94G A124U	0 (no)
G83C U143G	1 (yes)
C38U C95U	0 (no)
A24G U132A	1 (yes)
U91A A142G	0 (no)
U1C U47C	1 (yes)
A30G A94U	0 (no)
A59U U119C	0 (no)
C76U U143A	1 (yes)
U62C C113G	0 (no)
U115C C145A	1 (yes)
U39C C71A	0 (no)
U12G U47A	1 (yes)
U91C C120A	1 (yes)
C18U U85G	0 (no)
U13C U132G	1 (yes)
A94C G126C	0 (no)
G32A A42G	1 (yes)
G82U A117U	1 (yes)
U13A G114A	1 (yes)
A64G C123U	0 (no)
U14A U119C	1 (yes)
G58U U115C	0 (no)
G44A U132C	1 (yes)
A59U A129C	1 (yes)
G49A U108C	1 (yes)
U20A A64G	0 (no)
U39C A140G	1 (yes)
U85G U143C	0 (no)
G93C C120U	0 (no)
U130C C133U	1 (yes)
G21U A77G	1 (yes)
U52C A57U	0 (no)
A22G U62C	0 (no)
A64C U96C	0 (no)
G58A	0 (no)
G82A A94G	0 (no)
U14C G125A	1 (yes)
U45C U52A	1 (yes)
A24G G144A	1 (yes)
A94U U102C	0 (no)
U29C C71A	0 (no)
C90A A107U	0 (no)
G10A G97A	0 (no)
C99A C113U	0 (no)
G60A A64G	0 (no)
U73C G139U	1 (yes)
G25A G44A	1 (yes)
U9A A121G	1 (yes)
A94G A117U	0 (no)
A124C U143C	1 (yes)
U12G C103A	1 (yes)
A50G G53A	1 (yes)
U14A G54A	0 (no)
U26A U134A	1 (yes)
U12A U132C	1 (yes)
A57G G86A	0 (no)
U13C A50G	0 (no)
U100A C118U	1 (yes)
G27C U52A	1 (yes)
G60A U132C	0 (no)
A124G G125A	1 (yes)
U112C U134G	1 (yes)
A65G C101U	0 (no)
U20A G86A	0 (no)
G114A U119A	1 (yes)
A43G G58A	0 (no)
G32U U39A	1 (yes)
